Each entry below carries its recorded Kp.
Assay: Colon and plasma mouse pharmacokinetics
Format: in vivo
Conditions: mouse, colon tissue / plasma; male Balb/c mice, 10 mg/kg PO; ratio of the colon AUC to the plasma AUC

// worked examples, Kp included
{"columns": ["compound", "Kp"],
 "data": [
  ["C=CC(=O)N1CC(CCn2c(=O)ccc3cnc(Nc4ccc(N5CCN(C(=O)CCSC)CC5)cc4)nc32)C1 [Example 3]", "> 1000"],
  ["C=CC(=O)N1CCN(CCn2c(=O)ccc3cnc(Nc4ccc(N5CCN(C(=O)N(C)C)CC5)cc4)nc32)[C@@H](C)C1 [Example 174]", "> 14"]
]}

Now for the compound whose Kp we want.
Quick one: Kp for C=CC(=O)N1CC(CCn2c(=O)ccc3cnc(Nc4ccc(N5CCN(S(=O)(=O)C6COC6)CC5)cc4)nc32)C1 [Example 102] ?
> 1000
